system: HCC-2998
QUANTITY_KIND: GI50 (µM)
Kindly answer with a numeric value in µM, unit omitted.

Please respond with reported GI50 (system HCC-2998) for Cn1ccnc1C(=O)/C=C/c1ccc(CC(=O)Nc2ccc(Cl)cc2)cc1 [Compound 30] .
3.42

Please respond with reported GI50 (system HCC-2998) for Cn1ccnc1C(=O)/C=C/c1ccc(CC(=O)Nc2ccc(F)cc2)cc1 [Compound 28] .
3.78

Please respond with reported GI50 (system HCC-2998) for Cc1ccc(NC(=O)Cc2ccc(/C=C/C(=O)c3ncc[nH]3)cc2)cc1 [Compound 20] .
6.73

Please respond with reported GI50 (system HCC-2998) for O=C(Cc1ccc(/C=C/C(=O)c2ncc[nH]2)cc1)Nc1ccc(F)cc1 [Compound 22] .
5.43

New cases:
Please respond with reported GI50 (system HCC-2998) for CCn1ccnc1C(=O)/C=C/c1ccc(CC(=O)Nc2ccc(F)cc2)cc1 [Compound 31] .
5.1

Please respond with reported GI50 (system HCC-2998) for Cn1ccnc1C(=O)/C=C/c1ccc(CC(=O)Nc2ccccc2)cc1 [Compound 27] .
4.42

Please respond with reported GI50 (system HCC-2998) for O=C(Cc1ccc(/C=C/C(=O)c2ncc[nH]2)cc1)Nc1ccc(Cl)cc1 [Compound 25] .
3.73

Please respond with reported GI50 (system HCC-2998) for O=C(Cc1ccc(/C=C/C(=O)c2ncc[nH]2)cc1)Nc1ccc(C(F)(F)F)cc1 [Compound 24] .
3.97

---

GI50 tested on SF-295: recorded values
Kindly answer with a numeric value in µM, unit omitted.

Given the compound Cn1ccnc1C(=O)/C=C/c1ccc(CC(=O)Nc2ccccc2)cc1 , write its reported GI50.
5.44

Given the compound Cc1ccc(NC(=O)Cc2ccc(/C=C/C(=O)c3ncc[nH]3)cc2)cc1 , write its reported GI50.
7.9

Given the compound O=C(Cc1ccc(/C=C/C(=O)c2ncc[nH]2)cc1)Nc1ccc(Cl)cc1 , write its reported GI50.
3.33

Given the compound Cn1ccnc1C(=O)/C=C/c1ccc(CC(=O)Nc2ccc(F)cc2)cc1 , write its reported GI50.
4.55

Given the compound O=C(Cc1ccc(/C=C/C(=O)c2ncc[nH]2)cc1)Nc1ccc(C(F)(F)F)cc1 , write its reported GI50.
4.08

New cases:
Given the compound CCn1ccnc1C(=O)/C=C/c1ccc(CC(=O)Nc2ccc(F)cc2)cc1 , write its reported GI50.
4.41

Given the compound Cn1ccnc1C(=O)/C=C/c1ccc(CC(=O)Nc2ccc(Cl)cc2)cc1 , write its reported GI50.
7.39

Given the compound O=C(Cc1ccc(/C=C/C(=O)c2ncc[nH]2)cc1)Nc1ccc(F)cc1 , write its reported GI50.
4.74

---

// values below are reported melting point
Kindly answer with a numeric value in °C, unit omitted.

Given the molecule Cn1ccnc1C(=O)/C=C/c1ccc(CC(=O)NC2CCCCC2)cc1 [Compound 29] , write its reported melting point.
182.5

New cases:
Given the molecule O=C(Cc1ccc(/C=C/C(=O)c2ncc[nH]2)cc1)Nc1c(F)c(F)c(F)c(F)c1F [Compound 35] , write its reported melting point.
235

Given the molecule O=C(Cc1ccc(/C=C/C(=O)c2ncc[nH]2)cc1)NC1CCCCC1 [Compound 23] , write its reported melting point.
208.5

---

GI50 tested on OVCAR-5: recorded values
Kindly answer with a numeric value in µM, unit omitted.

Would you please look over these solved cases?
Please respond with reported GI50 (system OVCAR-5) for CCn1ccnc1C(=O)/C=C/c1ccc(CC(=O)Nc2ccc(F)cc2)cc1 [Compound 31] .
4.97

Please respond with reported GI50 (system OVCAR-5) for Cc1ccc(NC(=O)Cc2ccc(/C=C/C(=O)c3ncc[nH]3)cc2)cc1 [Compound 20] .
6.84

Please respond with reported GI50 (system OVCAR-5) for O=C(Cc1ccc(/C=C/C(=O)c2ncc[nH]2)cc1)Nc1ccc(Cl)cc1 [Compound 25] .
3.3

Please respond with reported GI50 (system OVCAR-5) for Cn1ccnc1C(=O)/C=C/c1ccc(CC(=O)Nc2ccc(F)cc2)cc1 [Compound 28] .
4.36

API: the following record is the query input.
Please respond with reported GI50 (system OVCAR-5) for Cn1ccnc1C(=O)/C=C/c1ccc(CC(=O)Nc2ccc(Cl)cc2)cc1 [Compound 30] .
9.98
